Data provenance is patent US20260098080A1.

Molecular target: T1, human MASP-2cf CCP1-CCP2-SP (human, UniProt O00187 298-686, limits assumed)
T1 construct: domain: CCP1-CCP2-SP; also called human MASP-2 catalytic fragment
T1 sequence (O00187 298-686 limits assumed): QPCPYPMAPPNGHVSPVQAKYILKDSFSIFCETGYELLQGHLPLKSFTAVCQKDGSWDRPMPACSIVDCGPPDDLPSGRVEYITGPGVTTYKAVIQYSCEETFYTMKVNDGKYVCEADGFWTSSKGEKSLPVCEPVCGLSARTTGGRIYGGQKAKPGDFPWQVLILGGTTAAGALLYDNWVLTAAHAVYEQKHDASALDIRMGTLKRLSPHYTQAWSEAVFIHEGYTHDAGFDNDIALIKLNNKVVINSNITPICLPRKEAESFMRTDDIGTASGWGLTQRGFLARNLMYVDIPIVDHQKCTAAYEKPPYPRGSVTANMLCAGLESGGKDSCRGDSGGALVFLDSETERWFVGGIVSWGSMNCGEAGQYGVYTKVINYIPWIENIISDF
Test: SPR, target immobilised
Where no end group is shown, it is not given here.
Property label: koff (s⁻¹)
Numbers only, in s⁻¹.

// below: answered binders
{"Binder": "EVO2b (designed binder, not fully specified; cysteine pairing not given here, Modified TFPI-D2 Kunitz domain; made as m1) KPDFCFLEEDPGPCRAVKRRYFYNNQTKQCERFGYGGCLGNMNNFETLEECKNICEDG", "Property label": "koff", "Display unit": "s⁻¹", "Recorded measurement": 0.00156}
{"Binder": "EVO212 (designed binder, not fully specified; ends and bridges not checked, Modified TFPI-D2 Kunitz domain; made as m1) KPDFCFLENDPGLCRALKRRYFYNNQTKQCERFGYGGCLGNMNNFVTLEECKNICEDG", "Property label": "koff", "Display unit": "s⁻¹", "Recorded measurement": "8.26e-05"}
{"Binder": "EVO2a (designed binder, not fully specified; cysteine pairing not given here, Modified TFPI-D2 Kunitz domain; made as m1) KPDFCFLENDPGPCRAVKRRYFYNNQTKQCERFKYGGCLGNMNNFETLEECKNICEDG", "Property label": "koff", "Display unit": "s⁻¹", "Recorded measurement": 0.0021}

Please look at the following binder next.
Measured koff of EVO23 (designed binder, not fully specified; cysteine pairing not given here, Modified TFPI-D2 Kunitz domain; made as m1) KPDFCFLENDPGPCRALKRRYFYNNQTKQCERFYYGGCFGNMNNFVTLEECKNICEDG : 0.000197
